System: rhinovirus type 8 (RV-8)
Assay: Tissue culture antiviral testing, RV-8 (cytopathic effect, HeLa cells)
Format: cell-based
Details: Enterovirus, HeLa cells, read-out: Lowest concentration of the compound necessary to cause a 50 percent reduction in cytopathic effect
observable: EC50 (µg/mL)

structure string: N#Cc1cc([N+](=O)[O-])ccc1Oc1c(F)c(F)cc(F)c1F
units text: µg/mL
value relation sign: =
result number: 1.25
//
structure string: COc1cccc(Oc2ccc([N+](=O)[O-])cc2C#N)c1
units text: µg/mL
value relation sign: =
result number: 3.12
//
structure string: N#Cc1cc([N+](=O)[O-])ccc1Oc1ccc(Cl)c(Cl)c1
units text: µg/mL
value relation sign: =
result number: 0.25
//
structure string: N#Cc1cc([N+](=O)[O-])ccc1Oc1cccc(C(F)(F)F)c1
units text: µg/mL
value relation sign: =
result number: 1.25
//
structure string: CC(=O)c1ccc(Oc2ccc([N+](=O)[O-])cc2C#N)cc1
units text: µg/mL
value relation sign: =
result number: 3.12
//
structure string: N#Cc1cc([N+](=O)[O-])ccc1Oc1ccc(Cl)cc1Cl
units text: µg/mL
value relation sign: =
result number: 2.5
//
structure string: Cc1cc(Cl)ccc1Oc1ccc([N+](=O)[O-])cc1C#N
units text: µg/mL
value relation sign: =
result number: 3.12
//
structure string: N#Cc1cc([N+](=O)[O-])ccc1Oc1ccc(Cl)cc1
units text: µg/mL
value relation sign: <
result number: 6
//
structure string: N#Cc1cc([N+](=O)[O-])ccc1Oc1c(Cl)cccc1Cl
units text: µg/mL
value relation sign: ≤
result number: 3.12
//
structure string: N#Cc1cc([N+](=O)[O-])ccc1Oc1ccc(C(F)(F)F)cc1
units text: µg/mL
value relation sign: =
result number: 0.312
//
structure string: N#Cc1cc([N+](=O)[O-])ccc1Oc1cc(Cl)ccc1Cl
units text: µg/mL
value relation sign: <
result number: 6.25
//
structure string: N#Cc1cc([N+](=O)[O-])ccc1Oc1ccc(F)cc1
units text: µg/mL
value relation sign: =
result number: 0.625
//
structure string: N#Cc1cc([N+](=O)[O-])ccc1Oc1cc(Cl)cc(Cl)c1
units text: µg/mL
value relation sign: =
result number: 3.12
//
structure string: N#Cc1cc([N+](=O)[O-])ccc1Oc1c(F)c(F)c(F)c(F)c1F
units text: µg/mL
value relation sign: =
result number: 1.25
//
structure string: N#Cc1cc([N+](=O)[O-])ccc1Oc1c(Cl)ccc(Cl)c1Cl
units text: µg/mL
value relation sign: <
result number: 3.12

====

System: Coxsackie A21 virus (Cox A21)
Assay: Tissue culture antiviral testing, Cox A21 (cytopathic effect, HeLa cells)
Type: cell-based
Conditions: HeLa cells, NA = not active at the standard test conditions, read-out: Lowest concentration of the compound necessary to cause a 50 percent reduction in cytopathic effect
Binary call on EC50 with cut-off 1 µg/mL: strictly below means Satisfied, and equality or higher means Not satisfied.

compound: N#Cc1cc([N+](=O)[O-])ccc1Oc1cc(C(F)(F)F)cc(C(F)(F)F)c1 [Example 28]
answer label: Not satisfied

compound: N#Cc1cc([N+](=O)[O-])ccc1Oc1ccc(C(F)(F)F)cc1 [Example 14]
answer label: Satisfied

compound: N#Cc1cc([N+](=O)[O-])ccc1Oc1ccc(Cl)c(Cl)c1 [Example 1]
answer label: Satisfied

compound: N#Cc1cc([N+](=O)[O-])ccc1Oc1ccc(Cl)cc1Cl [Example 2]
answer label: Not satisfied

compound: N#Cc1cc([N+](=O)[O-])ccc1Oc1c(F)c(F)cc(F)c1F [Example 18]
answer label: Not satisfied

compound: N#Cc1cc([N+](=O)[O-])ccc1Oc1c(F)c(F)c(F)c(F)c1F [Example 19]
answer label: Not satisfied

compound: N#Cc1cc([N+](=O)[O-])ccc1Oc1ccc(F)cc1 [Example 21, 2-(4-Fluorophenoxy)-5-nitrobenzonitrile]
answer label: Satisfied

compound: N#Cc1cc([N+](=O)[O-])ccc1Oc1c(Cl)cccc1Cl [Example 24]
answer label: Not satisfied

compound: N#Cc1cc([N+](=O)[O-])ccc1Oc1ccc(Br)cc1 [Example 3, 2-(4-Bromophenoxy)-5-nitrobenzonitrile]
answer label: Not satisfied

compound: N#Cc1cc([N+](=O)[O-])ccc1Oc1cc(Cl)ccc1Cl [Example 23]
answer label: Not satisfied

compound: N#Cc1cc([N+](=O)[O-])ccc1Oc1cccc(C(F)(F)F)c1 [Example 27]
answer label: Not satisfied

====

Test system: Coxsackie A21 virus (Cox A21)
Assay: Tissue culture antiviral testing, Cox A21 (cytopathic effect, HeLa cells)
Assay type: cell-based
Details: HeLa cells, NA = not active at the standard test conditions, read-out: Lowest concentration of the compound necessary to cause a 50 percent reduction in cytopathic effect
observable: EC50

structure string: N#Cc1cc([N+](=O)[O-])ccc1Oc1ccc(Oc2ccccc2)cc1
result: < 6.25 µg/mL
--
structure string: N#Cc1cc([N+](=O)[O-])ccc1Oc1cc(Cl)c(Cl)c(Cl)c1
result: 1.25 µg/mL
--
structure string: N#Cc1cc([N+](=O)[O-])ccc1Oc1cccc(Cl)c1Cl
result: < 3.12 µg/mL

====

Test system: Coxsackie A21 virus (Cox A21)
Assay: Tissue culture antiviral testing, Cox A21 (cytopathic effect, HeLa cells)
Assay type: cell-based
Conditions: HeLa cells, NA = not active at the standard test conditions, read-out: Lowest concentration of the compound necessary to cause a 50 percent reduction in cytopathic effect
Items are presented alongside their recorded EC50.
observable: EC50

molecule: CS(=O)(=O)c1ccc(Oc2ccc([N+](=O)[O-])cc2C#N)cc1 [Example 8]
result: < 6.25 µg/mL
--
molecule: CC(=O)c1ccc(Oc2ccc([N+](=O)[O-])cc2C#N)cc1 [Example 15, 2-(4-Acetylphenoxy)-5-nitrobenzonitrile]
result: < 3.12 µg/mL
--
molecule: N#Cc1cc([N+](=O)[O-])ccc1Sc1ccc(Cl)c(Cl)c1 [Example 20]
result: ~2.5 µg/mL
--
molecule: CSc1ccc(Oc2ccc([N+](=O)[O-])cc2C#N)cc1 [Example 6]
result: < 6.25 µg/mL
--
molecule: CN(C)S(=O)(=O)c1ccc(Oc2ccc([N+](=O)[O-])cc2C#N)cc1 [Example 9]
result: < 6.25 µg/mL
--
molecule: C[S+]([O-])c1ccc(Oc2ccc([N+](=O)[O-])cc2C#N)cc1 (stereo not shown) [Example 7]
result: < 6.25 µg/mL
--
molecule: N#Cc1cc([N+](=O)[O-])ccc1Oc1ccc(Cl)c(Cl)c1Cl [Example 29]
result: ~5 µg/mL
